# assaySummary: growth rescue of sdo1-depleted yeast, primary screen, S. cerevisiae, bone marrow failure model (AID 817)
# appliedConditions: S. cerevisiae sdo1-depleted JHY4D growth rescue, OD600; measured here: growth rescue at 24 h; at 10 µM; stronger effect = higher value; pdr5 snq2 efflux-pump mutant strain
The whole screen tested about 140,000 compounds, of which about 300 (0.21%) were called active. The sample as a whole holds a higher share of actives than the screen did.
# cutoff -0.04 applies to z-score; >= gives yes, < gives no

Illustrative cases are given below, each with its answer.
compound | className
Cc1ccn(-c2cccc(-n3ccc(C)n3)n2)n1 | no
C#CCOCCOCCOCCNc1nc(N2CCN(C(=O)[C@H](C(C)C)n3cc(CCO)nn3)CC2)nc(N2CCN(C(=O)[C@H]([C@@H](C)CC)n3cc(CCCN=C(N)N)nn3)CC2)n1 | yes
Cc1ccccc1NC(=S)N(CCCN1CCOCC1)Cc1cccs1 | yes

Enquiry: Could you please find out whether COc1ccc(C(=O)NNS(=O)(=O)c2ccc(C)cc2)cc1 has z-score that meets -0.04 or exceeds it?
Return: no

Enquiry: Could you please find out whether COc1ccccc1OCc1ccc(C(=O)N2CCN(C)CC2)o1 has z-score that meets -0.04 or exceeds it?
Return: yes

Enquiry: Could you please find out whether CC(C)CNC(=O)CC(NCC(C)C)C(=O)O (stereo unspecified) has z-score that meets -0.04 or exceeds it?
Return: yes

Enquiry: Could you please find out whether CN(C)C(=O)c1ccc2c(c1)C1C3CCC(C3)C1C(c1ccccc1)N2 (stereo unspecified) has z-score that meets -0.04 or exceeds it?
Return: no
